Data origin: ChEMBL document CHEMBL1132456

# Lookup of reported pKi keyed by entry
study target: Human immunodeficiency virus type 1 reverse transcriptase (Human immunodeficiency virus 1, UniProt Q72547)
Scale: pKi equals -log10([C]), with [C] in mol/L.

Past entries and their recorded results:
[[record]]
molecule = "CCC1(c2cccc(OC)c2)Oc2ccccc2-n2cccc2C1=O (stereo not given)"
reported_value = 7.22

[[record]]
molecule = "CCC1(c2cc(F)cc(F)c2)Oc2ccccc2-n2cccc2C1=O (stereo not given)"
reported_value = 5.82

[[record]]
molecule = "CCC1(c2cccc(C)c2)Oc2cccnc2-n2cccc2C1=O (stereo not given)"
reported_value = 7.68

[[record]]
molecule = "CCC1(c2ccccc2)Oc2ccccc2-n2cccc2C1=O (stereo not given)"
reported_value = 6.72

[[record]]
molecule = "CCC1(c2ccccc2)Oc2cccnc2-n2cccc2C1=O (stereo not given)"
reported_value = 7.66


pKi in this record for CCC1(c2cccs2)Oc2cccnc2-n2cccc2C1=O (stereo not given) : 7.03

pKi in this record for CCC1(c2ccc(C)cc2)Oc2ccccc2-n2cccc2C1=O (stereo not given) : 6.01

pKi in this record for CCC1(c2cccc(C)c2)Oc2ccccc2-n2cccc2C1=O (stereo not given) : 7.15

pKi in this record for CCC1(c2cccc(F)c2)Oc2ccccc2-n2cccc2C1=O (stereo not given) : 7.00

pKi in this record for CCC1(c2cccs2)Oc2ccccc2-n2cccc2C1=O (stereo not given) : 7.52
